Test system: LL/2 lung cancer tumor endothelial cells
measurementNotes: Lung LL2 ex vivo model of tumor angiogenesis
Assay type: cell-based, mouse
reportedConditions: 20 μm; (24 hrs)
Recorded Cell death, read at 24 hrs by entry

- compound: "CCCCCCCCCCOc1ccc(S(=O)(=O)c2cnc3ccc([S+](C)[O-])cc3c2N2CCC(N3CCN(CCO)CC3)CC2)cc1F (stereo not shown) [Compound 291]"
  Cell death, read at 24 hrs / %: 10
- compound: "CCCCCCCCCCOc1ccc(S(=O)(=O)c2cnc3ccc([S+](C)[O-])cc3c2N2CCC(N3CCC(N4CCN(CCO)CC4)CC3)CC2)cc1 (stereo not shown) [Compound 292]"
  Cell death, read at 24 hrs / %: 10
- compound: "CCCCCCCCCCOc1ccc(S(=O)(=O)c2cnc3ccc([S+](C)[O-])cc3c2N2CCC(N3CCC(N4CCCN(C)CC4)CC3)CC2)cc1 (stereo not shown) [Compound 287]"
  Cell death, read at 24 hrs / %: 40
- compound: "CCCCCCCCCCOc1ccc(S(=O)(=O)c2cnc3ccc([S+](C)[O-])cc3c2N2CCC(N3CCC(N4CCOCC4)CC3)CC2)cc1 (stereo not shown) [Compound 286]"
  Cell death, read at 24 hrs / %: 0

* * *

Test system: LL/2 lung cancer tumor endothelial cells
measurementNotes: Lung LL2 ex vivo model of tumor angiogenesis
Type: cell-based, mouse
reportedConditions: 10 μm; drug treatment for two days; ratio of red area to total endothelial cell area

- compound: "CCCCCCCCCCOc1ccc(S(=O)(=O)c2cnc3ccc([S+](C)[O-])cc3c2N2CCC(N3CCN(C)CC3)CC2)cc1 (stereo not drawn) [Compound 264]"
  Cell death / %: 20
- compound: "CCCCCCCCCCOc1ccc(S(=O)(=O)c2cnc3ccc([S+](C)[O-])cc3c2N2CCC(N3CCCC(O)C3)CC2)cc1 (stereo not drawn) [Compound 265]"
  Cell death / %: 20
- compound: "CCOC(=O)c1ccc2ncc(S(=O)(=O)c3ccc(OC)cc3)c(N3CCCN(CCN4CCCCC4)CC3)c2c1 [Compound 179]"
  Cell death / %: 60
- compound: "CCCCCCCCCCOc1ccc(S(=O)(=O)c2cnc3ccc([S+](C)[O-])cc3c2N2CCC(N3CCCN(C)CC3)CC2)cc1 (stereo not drawn) [Compound 267]"
  Cell death / %: 5
- compound: "CC(C)CCCC(C)CCOc1ccc(S(=O)(=O)c2cnc3ccc([S+](C)[O-])cc3c2N2CCC(N3CCN(CCO)CC3)CC2)cc1 (stereo not drawn) [Compound 284]"
  Cell death / %: 10
- compound: "CCCCCCCOc1ccc(S(=O)(=O)c2cnc3ccc([S+](C)[O-])cc3c2N2CCN(CCN3CCCCC3)CC2)cc1 (stereo not drawn) [Compound 282]"
  Cell death / %: 10
- compound: "CCCCCCCCCCOc1ccc(S(=O)(=O)c2cnc3ccc([S+](C)[O-])cc3c2N2CCC(N3CCC(N4CCCC(O)C4)CC3)CC2)cc1 (stereo not drawn) [Compound 288]"
  Cell death / %: 50
- compound: "CCOC(=O)c1ccc2ncc(S(=O)(=O)c3ccc(OC)cc3)c(N3CCCN(CCN4CCCC4)CC3)c2c1 [Compound 180]"
  Cell death / %: 70
- compound: "CCOC(=O)c1ccc2ncc(S(=O)(=O)c3ccc(OC)cc3)c(-n3cnnn3)c2c1 [Compound 185]"
  Cell death / %: 30
